Reference source: the supplement of paper PMC9170038

tested on: K4 kissing-loop RNA reporter; assay: apparent KD of K4 kissing-loop reporter; higher = weaker reporter binding; conditions: Eterna round: R107; input ligand: FMN 200 uM
apparent KD of K4 kissing-loop reporter by entry:
Reply numerically in µM, unit not repeated.

INPUT SEQUENCE | ASSAYED TARGET | apparent KD of K4 kissing-loop reporter (µM)
UCUGUUGUAUAUGAUACCAGCAGUGAGAGACGAGAAGUAUAGUGAUGUUAUAUGAGAGAAUGCCCUUGGCAGCGUGUGCGUGUGG [SSTheophylB.aB] | K4 kissing-loop RNA reporter | 0.111

Attention now shifts to the item below.
Problem: Give the value of apparent KD of K4 kissing-loop reporter reported for the following: CCUCUCCUUGAUAGUGAUGUUAUCAAGGACAAGGAUAUCAUCUCAAUGAGAAGGUGUCCUUGAUAACAUGGAGGUCUGAAACAGA [Omei KL FMN A Exc C v1]
Result: 0.138

---

apparent KD of MS2 coat protein by entry:
tested on: MS2 coat protein; test: apparent KD of MS2 coat protein; designed switch direction (-1 OFF switch, 1 ON switch): 1; higher = weaker reporter binding; details: input ligand: none
Reply numerically in nM, unit not repeated.

INPUT SEQUENCE | ASSAYED TARGET | apparent KD of MS2 coat protein [nM]
AAAAGAAACAUGUACCUGAGUACAUGAAAACAUGAGGAUCACCCAUGUAACAAGUUGGGUGCUUGUCUUAUAAGAAA [JL pocket 4] (Eterna round: R96, puzzle: Sensor for hsa-mir-208a) | MS2 coat protein | 822
UCAGUCAUGUAAGGAUAUGCAGCCGAAACGGCUGCAGAAGGUACUAUAAUUACAUGAGGAUCACCCAUGUUAUAAAUAAAAUAU [Mat - Same State NG 1 - JL mod - D66] (Eterna round: R96, puzzle: Same State NG 1) | MS2 coat protein | 62.6

Problem: Give the value of apparent KD of MS2 coat protein reported for the following: GAGAGAGGGUGAGGAUAUUGAGUAAUAAUGAUACAAGAAGGCACAGACAUGAGGAUCACCCAUGUGGGAAUAAUCCAGAGAGAG [Parity 6 - Jieux - Same State NG 1] (Eterna round: R96, puzzle: Same State NG 1)
Result: 289

Problem: Give the value of apparent KD of MS2 coat protein reported for the following: GGGAGACCUCAAGGAUAUGCUACCGUUUCGGUAGCAGAAGGUGAUCACAUGAGGAUCACCCAUGUAUGCAUGCGUGAGCGUGCU [JL SSNG1 3.58] (Eterna round: R96, puzzle: Same State NG 1)
Result: 67.8

Problem: Give the value of apparent KD of MS2 coat protein reported for the following: GGUGCAAUUAACGCCUACAUGAGGAUCACCCAUGUAUGUAGGCAGGAUAUCGUUUGCAAAGCAAACGAGAAGGGCUAUAGUACC [Mat - Same State NG 3 - JL Mod - D43] (Eterna round: R96, puzzle: Same State NG 3)
Result: 188

Problem: Give the value of apparent KD of MS2 coat protein reported for the following: GCUCGAUGAGCGUCCUACAUGAGGAUCACCCAUGUUCGUGGGCAGGAUAUUUACAUGCAGAGUGUAGAGAAGGGCCCAUCGAGC [SameState NG3 #65] (Eterna round: R96, puzzle: Same State NG 3)
Result: 477

---

apparent KD of K4 kissing-loop reporter by entry:
system: K4 kissing-loop RNA reporter; experiment: apparent KD of K4 kissing-loop reporter; higher = weaker reporter binding; details: Eterna round: R107; input ligand: tryptophan 2.4 mM;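 also: bound reporter read as fluorescence of individual clusters on recovered sequencing chips by microscopy, with normalized cluster intensities fitted with a binding model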
Reply numerically in µM, unit not repeated.

Some sequences with recorded apparent KD of K4 kissing-loop reporter:
INPUT SEQUENCE | RESULT UNITS | apparent KD of K4 kissing-loop reporter
UGUCAUUGGUCGGCCGCCACUUUGUAUGGAGUGAUGUUUUGUAGAUUGUGUUGAAAGGUGUGGUGAAGGACCGGGACCGAUGACU [FiskerMod 24 - Jieux - Same State - Tryptophan B] | µM | 0.749
CACCAUGAAUUCUCUAGGAGUGAUGUUUUUCGAGGACCGGUACGGCCGCCACUCGGACGAGGACCGUGGGAGCGGCGAAGCGGCU [?oegmullin] | µM | 0.104

Attention now shifts to the item below.
Problem: Give the value of apparent KD of K4 kissing-loop reporter reported for the following: CAAGUCGAAAAGUGAUGUUUUUCAUACGAUACCAGCAACCAGACAUGCCCUUGGCAGCGUCCAUUACGUUUCUGAGCCCGUACAG [theeternabot_exclusion_KL_Theo_A_40]
Result: 0.308

---

apparent KD of MS2 coat protein by entry:
tested on: MS2 coat protein; assay: apparent KD of MS2 coat protein; designed switch direction (-1 OFF switch, 1 ON switch): -1; higher = weaker reporter binding; conditions: input ligand: FMN 200 uM
Reply numerically in µM, unit not repeated.

Some sequences with recorded apparent KD of MS2 coat protein:
INPUT SEQUENCE | DATA VALUE
UUAAAUCAUGUAGGAUAUGCGUGGCGAAGCUAUGCAGAAGGACAUGAGGAUCACCCAUGUUCUUGCGUCUGCGUACAGAUGCGG [Exclusion NG 1] (Eterna round: R96, puzzle: Exclusion NG 1) | 0.175
AUUCCACAUGAGGAUCACCCAUGUCAGGAUAUGCAUAGUCCUGCCACAUAGGACUAGCGCAGAAGGGAUCGGGC [Eternabot (L2) Solution 20] (Eterna round: R97, puzzle: Exclusion 1) | 0.0539
AAGAGGAAUAUAGGAUAUGAGGCUGAGACGGCGUCAGAAGGGUAUCCAGAGUUACAUGAGGAUCACCCAUGUGGUGAUUUCUAA [Exclusion NG 1 V2 1] (Eterna round: R96, puzzle: Exclusion NG 1) | 0.0092
CACCGUUACGUAGGAUAUGUUACAUGAGGAUCACCCAUGUAAUAAAUGAGAAUUUCGAAUGUAAUACAGAAGGACGGAAUCGGC [Ostracism 70 - Jieux - Exclusion NG 2] (Eterna round: R96, puzzle: Exclusion NG 2) | 0.0533
AAAUCGGUGGAGGAUAUUGUACAGGAAACGGUGCGAGAAGGUUACACAUGAGGAUCACCCAUGUUAAAUAGCGA [EX6 #56] (Eterna round: R97, puzzle: Exclusion 6) | 0.0252

Problem: Give the value of apparent KD of MS2 coat protein reported for the following: AUAUUAAUAGUAAGGAUAUGCGUAUAUGUAGUUAUGCAGAAGGUACAUGAGGAUCACCCAUGUAUUAAUGUGUA [LRO-BmodExc4-04-Oppy's Opus] (Eterna round: R97, puzzle: Brourd's mod of Exclusion 4)
Result: 0.016

Problem: Give the value of apparent KD of MS2 coat protein reported for the following: UUGAGUCGGAAGGAUAUGCGAGCCGCCGGGUCAGCAGAAGGUCCGACAUGAGGAUCACCCAUGUUGGGCGAGGA [EX6 B.10] (Eterna round: R97, puzzle: Exclusion 6)
Result: 0.351

Problem: Give the value of apparent KD of MS2 coat protein reported for the following: GUGGGUUACAUGAGGAUCACCCAUGUAGAGUGGGAAGAGAGAUAGGAUAUGAUGUGAGAAUCAUAUCAGAAGGAUCGAGACUCG [AK ExNG3-2.3] (Eterna round: R96, puzzle: Exclusion NG 3)
Result: 0.512

Problem: Give the value of apparent KD of MS2 coat protein reported for the following: GGUGAGCUAGGAUAUGCUUUGGGCUCGCAUUCCUUCGAUAAACUUGAGGAUCACCCAAGUAGAAGGAGCUUGCC [salish99_ex2_r4_032] (Eterna round: R97, puzzle: Exclusion 2)
Result: 0.0233

---

system: MS2 coat protein; assay: apparent KD of MS2 coat protein; designed switch direction (-1 OFF switch, 1 ON switch): -1; higher = weaker reporter binding; conditions: Eterna round: R95; input ligand: FMN 200 uM
Assign met whenever apparent KD of MS2 coat protein does not fall below 100 nM; assign not met whenever it does.

Record excerpt, results attached:
INPUT SEQUENCE | QUALITATIVE LABEL
CCGUGGCAAGGAUAUACAGAGGAGAGGAAGGCAAGAGGUGGACAUGAGGAUCACCCAUGUAGAAGGUGCAGAGC [JR_Exclu2_Sub026] (puzzle: Exclusion 2) | met
CAGAAUUGAGGAUAUGAUCAAUUUAACAUGAGGAUCACCCAUGUAUGGGAAUGAUUCUGAUCAGAAGGCGAUUCUU [Exclusion 5: 1:a] (puzzle: Exclusion 5) | met
GCCAGAGCAGGAUAUUCAAUAAUCCACAUGAGGAUCACCCAUGUCCUGCGAAAGCAGGAGGGAGAAGGGCUCUGGC [Mat - Exclusion 5 - Eli mod - D89] (puzzle: Exclusion 5) | not met
UUUAACAAGCCAGAUCCUCACAUGAGGAUCACCCAUGUGCUCGUCUGAUUUUGUACUAUCACGUUUGUGAUAGUGUU [Level Boss var2-07] (puzzle: Sensor v3, turn-off variant 1) | met
CUGAUGUCAGGAUAUCAGAAAAGGCGCAAGGACACGCCAAAUGAGAAGGGACAUGAGGAUCACCCAUGUAAAAC [Orata] (puzzle: Exclusion 4) | met

Problem: Kindly determine if apparent KD of MS2 coat protein recorded for GAGAAGGUAGGAUAUACGAAGAAAGAGGGUAGGAAGAAGACACAUGAGGAUCACCCAUGUAGAAGGACCAAGAG [Mat - Exclusion 2 - Mod of my Tesla design - D48] (puzzle: Exclusion 2) is above or exactly 100 nM.
Result: not met

Problem: Kindly determine if apparent KD of MS2 coat protein recorded for AGUACUAACACGAUAGUGUUAGUACUAUAAGCUUGUGUUACAUGAGGAUCACCCAUGUCCUCAUAAGCUCGUCUUGA [Mat - Sensor v3 - Turn-off var 2 - D92] (puzzle: Sensor v3, turn-off variant 2) is above or exactly 100 nM.
Result: not met

Problem: Kindly determine if apparent KD of MS2 coat protein recorded for CUGAGCAGACGGAGAUCCAACAUGAGGAUCACCCAUGUCUCAAAAGCUUUUUGCUCGCCUUAUCCUCCUCUGUUCUC [Ererququce] (puzzle: Sensor v3, turn-off variant 1) is above or exactly 100 nM.
Result: not met
